We begin with a simple list: items and their reported log10 MIC.
Tested on: Candida albicans
experimentNotes: Antimicrobial activity against Candida albicans NCIM 3471 by broth dilution technique
Type: functional
// units: µg/mL (pre-log); metric: MIC; scale: log10

compound	experimentalResult
COc1cc2c(cc1OC)C1=NN(C(N)=S)C(c3ccc(F)cc3)C1C2 (stereo unspecified)	1.51

*Q* Could you tell me which log10 MIC is on file for COc1cc2c(cc1OC)C1=NN(C(N)=S)C(c3ccccc3Cl)C1C2 (stereo unspecified) ?
*A* 1.81

*Q* Moving on to COc1cc2c(cc1OC)C1=NN(C(N)=S)C(c3ccccc3)C1C2 (stereo unspecified)
*A* 2.11
